- Tested on: MONO-MAC-6 (Acute Myeloid Leukemia)
- protocol: combination Emax (second highest fraction inhibited in the dose matrix, 72 h); higher = more inhibition; extreme values may be limits of the assay
readout_type: combination Emax
Numbers only.

Reference set, count: 3
{"molecule": "CCN(CCO)CCCOc1ccc2c(Nc3cc(CC(=O)Nc4cccc(F)c4)[nH]n3)ncnc2c1 [AZD2811] + C=CCn1c(=O)c2cnc(Nc3ccc(N4CCN(C)CC4)cc3)nc2n1-c1cccc(C(C)(C)O)n1 [AZD1775] (first compound max 1 µM, partner max 1 µM)", "system": "MONO-MAC-6 (Acute Myeloid Leukemia)", "combination Emax": 0.958}
{"molecule": "NC1(C(=O)N[C@@H](CCO)c2ccc(Cl)cc2)CCN(c2ncnc3[nH]ccc23)CC1 [Capivasertib] + Cn1cnc2c(F)c(Nc3ccc(Br)cc3Cl)c(C(=O)NOCCO)cc21 [Selumetinib] (first compound max 10 µM, 7x7, partner max 10 µM)", "system": "MONO-MAC-6 (Acute Myeloid Leukemia)", "combination Emax": 0.847}
{"molecule": "COc1nnc2ccc(N3CCC(c4ccc(OCCN5CCN(C)C(=O)[C@H]5C)cc4)CC3)nn12 [AZD5153] + C=CCn1c(=O)c2cnc(Nc3ccc(N4CCN(C)CC4)cc3)nc2n1-c1cccc(C(C)(C)O)n1 [AZD1775] (first compound max 1 µM, partner max 1 µM)", "system": "MONO-MAC-6 (Acute Myeloid Leukemia)", "combination Emax": 0.989}

QUERY: I am curious: what combination Emax value has been reported for C[C@@H](c1ccc2nccn2c1)n1nnc2ncc(-c3cnn(C)c3)nc21 [Savolitinib] + Cc1c2c(nn1C)CSCc1cc(n(C)n1)CSc1cc(c3ccccc3c1)OCCCc1c(C(=O)O)n(C)c3c-2c(Cl)ccc13 [AZD5991] (first compound max 1 µM, 7x7, partner max 1 µM) ?
RESULT: 0.997

---

- Test system: OVCAR-3 (Ovarian Carcinoma);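 also: after 72 h of two-drug dosing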
- protocol: Bliss excess, mean over the matrix (fraction); higher = more synergy
Give Bliss excess for every item shown.
Answers are plain numbers.

The following molecules have reported results that may help.
{"molecule": "NC1(C(=O)N[C@@H](CCO)c2ccc(Cl)cc2)CCN(c2ncnc3[nH]ccc23)CC1 [Capivasertib] + CC(C)n1c(=O)n(C)c2cnc3cc(F)c(-c4ccc(OCCCN5CCCCC5)nc4)cc3c21 [AZD1390] (first compound max 10 µM, 7x7, partner max 0.3 µM)", "Bliss excess": -0.0438}
{"molecule": "C=CCn1c(=O)c2cnc(Nc3ccc(N4CCN(C)CC4)cc3)nc2n1-c1cccc(C(C)(C)O)n1 [AZD1775] + C1CN(CCC1(C(=O)N[C@@H](CCO)C2=CC=C(C=C2)Cl)N)C3=NC=NC4=C3C=CN4 [Capivasertib] (first compound max 3 µM, partner max 3 µM)", "Bliss excess": -0.025}
{"molecule": "COc1nnc2ccc(N3CCC(c4ccc(OCCN5CCN(C)C(=O)[C@H]5C)cc4)CC3)nn12 [AZD5153] + C[C@@H]1COCCN1C2=NC(=NC(=C2)C3(CC3)[S@](=N)(=O)C)C4=C5C=CNC5=NC=C4 [AZD6738] (first compound max 1 µM, 7x7, partner max 10 µM)", "Bliss excess": 0.0931}

Kindly give each listed record's Bliss excess.
1. CC1(C)CCC(CN2CCN(c3ccc(C(=O)NS(=O)(=O)c4ccc(NCC5CCOCC5)c([N+](=O)[O-])c4)c(Oc4cnc5[nH]ccc5c4)c3)CC2)=C(c2ccc(Cl)cc2)C1 [Venetoclax] + C[C@@H]1COCCN1C2=NC(=NC(=C2)C3(CC3)[S@](=N)(=O)C)C4=C5C=CNC5=NC=C4 [AZD6738] (first compound max 1 µM, 7x7, partner max 10 µM)
2. COc1cccc(OCCCN)c1-c1cc(Nc2cnc(C#N)cn2)n[nH]1 [Prexasertib] + O=C(c1cc(Cc2n[nH]c(=O)c3ccccc23)ccc1F)N1CCN(C(=O)C2CC2)CC1 [Olaparib] (first compound max 1 µM, 7x7, partner max 10 µM)
3. CCN(CCO)CCCOc1ccc2c(Nc3cc(CC(=O)Nc4cccc(F)c4)[nH]n3)ncnc2c1 [AZD2811] + C[C@@H]1COCCN1C2=NC(=NC(=C2)C3(CC3)[S@](=N)(=O)C)C4=C5C=CNC5=NC=C4 [AZD6738] (first compound max 1 µM, 7x7, partner max 10 µM)
4. CN(CCO)CC[C@H](CSc1ccccc1)Nc1ccc(S(=O)(=O)NC(=O)c2ccc(N3CCC([C@@H](O)c4ccccc4-c4ccc(Cl)cc4)CC3)cc2)cc1S(=O)(=O)C(F)(F)F [AZD4320] + CN(C)CCCOc1ccc(-c2ccc3ncc4c(c3c2)n(C2CCOCC2)c(=O)n4C)cn1 [AZD0156] (first compound max 1 µM, 7x7, partner max 1 µM)

RESULT:
-0.0108
0.0265
-0.0269
-0.0407

// data source = the supplement of paper PMC11061612
